# test.description: viability loss in pontine glioma line – cell-based, SU-DIPG-XXV, MIPE5.0, CellTiter-Glo, qHTS, dose response (AID 1347065);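 note: cells exposed to compound for 48 hours before ATP readout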
# test.conditions: CellTiter-Glo ATP luminescence
Records with an inconclusive call do not appear. Activity calls are given as the source filed them. No cut-off is given here; in the data, nearly all actives have AC50 up to about 26 µM.
experimental.endpoint: AC50

The cases that follow already have their AC50 on record.
[[record]]
smiles_str = "COC[C@@H](c1ccc(C(F)(F)F)cc1)N1CCN(C2(C)CCN(C(=O)c3c(C)ncnc3C)CC2)C[C@@H]1C"
test_result = "inactive"

[[record]]
smiles_str = "CC[C@@H](Oc1cccc(CN(CCCOc2ccc(OC)cc2)c2nc3ccccc3o2)c1)C(=O)O"
test_result = "inactive"

[[record]]
smiles_str = "CC(C)(NS(=O)(=O)c1ccc2c(Cl)cnc(N=C(N)N)c2c1)C(=O)O"
test_result = "inactive"

[[record]]
smiles_str = "CN1CCN(c2ccc(-c3cccc(CN4CCOCC4)c3)cc2NC(=O)c2c[nH]c(=O)cc2C(F)(F)F)CC1"
test_result = "inactive"

[[record]]
smiles_str = "CN1CCN(c2ccc(Nc3ncc4cc(C#N)c(=O)n(C5CCCC5)c4n3)cc2)CC1"
test_result = "5.25 µM (active)"

[[record]]
smiles_str = "Oc1ccc(-c2ccc(-c3cc(Nc4cccc(CNC5CC5)c4)n[nH]3)cc2)c(O)c1"
test_result = "7.42 µM (active)"

[[record]]
smiles_str = "Cc1[nH]cnc1CN1CCN(C(=O)N[C@@H](CC(C)C)C(=O)O)[C@@H](Cc2ccccc2)C1=O"
test_result = "inactive"

[[record]]
smiles_str = "CCC(CC)CC1(C(=O)Nc2ccccc2SC(=O)C(C)C)CCCCC1"
test_result = "inactive"


Query molecule follows.
get_value(item= Nc1cc(C(F)(F)F)c(-c2cc(N3CCOCC3)nc(N3CCOCC3)n2)cn1 , readout=AC50) returns 0.934 µM (active)

----------
# test.description: drug combination growth inhibition, ovarian cancer – cell-based, oncology-focused library, rucaparib conditional, profiling panel (AID 1508598)
# test.conditions: patient-derived ovarian cancer cells, CellTiter-Glo viability, 144 h; at 0.00488 µM; OCI-C5x cells; without rucaparib; active compounds read low
Can you tell me viability for the items I'm about to list?
Express it in %; write the number only.

get_value(item= COc1ccc2cc(-c3nc(-c4ccc(S(C)=O)cc4)[nH]c3-c3ccncc3)ccc2c1 (stereo unspecified) , readout=viability) returns 95.5

get_value(item= CC[C@@H]1C(=O)N(C)c2cnc(Nc3ccc(C(=O)NC4CCC(N5CCN(CC6CC6)CC5)CC4)cc3OC)nc2N1C(C)C (stereo partly specified) , readout=viability) returns 87.7

get_value(item= COc1cc2nccc(Oc3ccc(NC(=O)NC4CC4)c(Cl)c3)c2cc1C(N)=O , readout=viability) returns 103

get_value(item= CC(C)Oc1ccc(C(=O)N[C@H](CNC(=O)CN(C)C)Cc2ccc(-c3cn4cccc([C@H](C)O)c4n3)cc2)cc1Cl , readout=viability) returns 115

get_value(item= Cn1cncc1[C@@](N)(c1ccc(Cl)cc1)c1ccc2c(c1)c(-c1cccc(Cl)c1)cc(=O)n2C , readout=viability) returns 122

get_value(item= O=C(O)c1ccc2c(c1)nc(Nc1cccc(Cl)c1)c1ccncc12 , readout=viability) returns 118

get_value(item= Cc1nc(Nc2n[nH]c3c2CN(C(=O)N[C@H](CN(C)C)c2ccccc2)C3(C)C)c2sccc2n1 , readout=viability) returns 106

get_value(item= Cc1c(NC(=O)OC[C@@H]2COCCN2)cn2ncnc(Nc3ccc4c(cnn4Cc4cccc(F)c4)c3)c12 , readout=viability) returns 132

get_value(item= CN(C)N=Nc1nc[nH]c1C(N)=O , readout=viability) returns 107

get_value(item= C[C@H](NC(=O)Cc1cc(F)cc(F)c1)C(=O)N[C@@H]1C(=O)N(C)c2ccccc2-c2ccccc21 , readout=viability) returns 127

get_value(item= Nc1nccc(Oc2ccc(NC(=O)c3c[nH]cc(-c4ccc(F)cc4)c3=O)cc2F)c1Cl , readout=viability) returns 134

get_value(item= CCC[C@H](Nc1nc(-c2ccc(NC(=O)NCC)c(OC)c2)ncc1C)c1cccnc1 , readout=viability) returns 110

get_value(item= COc1cc2c(Oc3ccc4[nH]c(C)cc4c3F)ncnc2cc1OCCCN1CCCC1 , readout=viability) returns 99.8

get_value(item= COc1c(C)cnc(Cn2cnc3c(Cl)nc(N)nc32)c1C , readout=viability) returns 82.7

get_value(item= CC(C)C[C@H](NC(=O)CNC(=O)c1cc(Cl)ccc1Cl)B(O)O , readout=viability) returns 129

get_value(item= Cc1nc2c(-c3cnc(N)nc3)nc(N3CCOCC3)nc2n1C(C)C , readout=viability) returns 116

get_value(item= Cc1cn(-c2cc(NC(=O)c3ccc(C)c(Nc4nccc(-c5cccnc5)n4)c3)cc(C(F)(F)F)c2)cn1 , readout=viability) returns 116

get_value(item= CC1(C)CNc2cc(NC(=O)c3cccnc3NCc3ccncc3)ccc21 , readout=viability) returns 122

get_value(item= Nc1cccc2c1C(=O)N(C1CCC(=O)NC1=O)C2=O (stereo unspecified) , readout=viability) returns 121

get_value(item= Cc1csc(-c2nnc(Nc3ccc(Oc4ncccc4-c4ccnc(N)n4)cc3)c3ccccc23)c1 , readout=viability) returns 92.7

get_value(item= O=C(Nc1ccccc1-c1cn2c(CN3CCNCC3)csc2n1)c1cnc2ccccc2n1 , readout=viability) returns 110

----------
Can you tell me viability for the items I'm about to list?
# test.description: drug combination growth inhibition, ovarian cancer – cell-based, oncology-focused library, rucaparib conditional, profiling panel (AID 1508598)
# test.conditions: patient-derived ovarian cancer cells, CellTiter-Glo viability, 144 h; at 0.00122 µM; OCI-C5x cells; without rucaparib; active compounds read low
Express it in %; write the number only.

get_value(item= CC(C)(C)Cn1c(N)nc2ccc(-c3[nH]c(C(C)(C)C)nc3-c3ccc(F)cc3)nc21 , readout=viability) returns 110

get_value(item= Cn1cc(-c2ccc3c(c2)CCN3C(=O)Cc2cccc(C(F)(F)F)c2)c2c(N)ncnc21 , readout=viability) returns 114

get_value(item= O=C(Nc1ccc(OC(F)(F)F)cc1)c1sccc1NCc1ccnc2ccccc12 , readout=viability) returns 110

get_value(item= CC(=O)c1c(C)c2cnc(Nc3ccc(N4CCNCC4)cn3)nc2n(C2CCCC2)c1=O , readout=viability) returns 104

get_value(item= Cc1ccc(-c2csc(NC(=O)c3ccccc3)n2)c(C)c1 , readout=viability) returns 117

----------
# test.description: viability loss in pontine glioma line – cell-based, JHH-DIPG-1, MIPE4.0, CellTiter-Glo, qHTS, dose response (AID 1347062);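 for AC50: cells exposed to compound for two days before readout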
# test.conditions: JHH-DIPG-1 viability, CellTiter-Glo ATP luminescence
Results filed as inconclusive are left out. The source made the active and inactive calls. The limit is not given here; nearly all actives have AC50 up to about 27 µM.
Hi there, use one of these labels in your reply, thanks! yes (1) for active, no (0) for inactive

input: What call does the record list for CC(C)C[C@H](NC(=O)CNC(=O)c1cc(Cl)ccc1Cl)B(O)O ?
output: yes (1)

input: What call does the record list for CCCCC(=O)O[C@]1(C(=O)CO)[C@H](C)C[C@H]2[C@@H]3CCC4=CC(=O)C=C[C@]4(C)[C@@]3(F)[C@@H](O)C[C@@]21C ?
output: no (0)

input: What call does the record list for COC(=O)N[C@H](C(=O)N1CCC[C@H]1c1ncc(-c2ccc(-c3ccc(-c4cnc([C@@H]5CCCN5C(=O)[C@@H](NC(=O)OC)C(C)C)[nH]4)cc3)cc2)[nH]1)C(C)C ?
output: no (0)

----------
Can you tell me viability for the items I'm about to list?
# test.description: drug combination growth inhibition, ovarian cancer – cell-based, oncology-focused library, rucaparib conditional, profiling panel (AID 1508598)
# test.conditions: patient-derived ovarian cancer cells, CellTiter-Glo viability, 144 h; at 5 µM; OCI-C5x cells; without rucaparib; active compounds read low
Express it in %; write the number only.

get_value(item= CCOc1cc(N2CCC(O)CC2)ccc1Nc1ncc2c(n1)N(C)c1ccccc1C(=O)N2C , readout=viability) returns 119

get_value(item= Cc1ccc(S(=O)(=O)Nc2nc3ccccc3nc2Nc2ccc3nsnc3c2)cc1 , readout=viability) returns 117

get_value(item= Nc1ccn([C@@H]2O[C@H](CO)[C@@H](O)C2(F)F)c(=O)n1 , readout=viability) returns 14.2

get_value(item= C=CC(=O)Nc1cccc(Nc2nc(Nc3ccc(NC4CN(CCF)C4)cc3OC)ncc2C(F)(F)F)c1 , readout=viability) returns 94.4

get_value(item= CN1CCN(c2ccc3nc(-c4c(N)c5c(F)cccc5[nH]c4=O)[nH]c3c2)CC1 , readout=viability) returns 73

get_value(item= O=c1cc(N2CCOCC2)oc2c(-c3cccc4c3sc3ccccc34)cccc12 , readout=viability) returns 89.5

get_value(item= CCC[C@H](NC(=O)/C(C#N)=C/c1cccc(Br)n1)c1ccccc1 , readout=viability) returns 102

get_value(item= Cc1nc(N)sc1-c1ccnc(Nc2ccc(N3CCOCC3)cc2)n1 , readout=viability) returns 108

get_value(item= COc1nc(C)cnc1NS(=O)(=O)c1cccnc1-c1ccc(-c2nnco2)cc1 , readout=viability) returns 116

get_value(item= N#CCNC(=O)c1ccc(-c2ccnc(Nc3ccc(N4CCOCC4)cc3)n2)cc1 , readout=viability) returns 109
